Test description: qHTS Screen of the MIPE 4.0 Collection Against Ewings Sarcoma (RDES) (AID 1259252); note: nearly all actives have a fitted effect of over 35% in size
Condition set: RD-ES Ewing sarcoma viability, CellTiter-Glo, 48 h; series mostly up to 45.8 µM
Protocol: There is a large unmet medical need for treatments for Ewing sarcoma, a pediatric sarcoma. […] Using the NCATS developed oncology compound library called the Mechanism of Interrogation Plate (MIPE), four Ewing sarcoma cell lines were evaluated (TC32, TC71, RDES, EW8). Compounds, in a 12-point titration series, were incubated with cells for 48 hours and the read out was cell viability (CellTiter-Glo from Promega). […]
Inconclusive results are not listed. The source made the active and inactive calls. Calls come from the whole dose curve; as a rule, active = well fitted inhibition curve with a large enough effect; inconclusive = small, poorly fitted or top-dose-only effect; inactive = no such curve, though single readings can be large or run the other way.
The reply should name one outcome from active, inactive

Known results for compounds:
Compound	Class
OC1CCC(Nc2ncc3nc(Nc4c(F)cc(F)cc4F)n([C@@H]4CCOC4)c3n2)CC1 (stereo partly specified)	active
CN1CCc2c(n(Cc3ccc(C(=O)NO)cc3)c3ccccc23)C1	active
CNC(=O)c1ccc2c(C(=Nc3cccc(CN(C)C)c3)c3ccccc3)c(O)[nH]c2c1	active
COc1c(C)cnc(Cn2cnc3c(Cl)nc(N)nc32)c1C	active
CCCCOCCOc1nc(-c2ccc(C(=O)O)c(F)c2)sc1C	active

Let us examine a further case.
# input Name the outcome recorded for Cc1ccc2c(c1)c1c(n2CCc2ccc(C)nc2)CCN(C)C1 in the assay.
# output inactive
